Sourced from ChEMBL document CHEMBL1133857

- MEASUREMENT_TARGET: Beta-2 adrenergic receptor and beta-3 adrenergic receptor (Homo sapiens) (UniProt P07550+P13945)
- EXPERIMENT: Selectivity as the ratio of Ki of beta-2 adrenergic receptor to the Ki of beta-3 adrenergic receptor.
- Type: protein assay
Please map values of Selectivity to classes as shown: bottom bin: < 0.2; middle bin: ≥ 0.2 and < 3; top bin: ≥ 3

Reference set (8 entries):
Qu. GET /class?item= COc1ccc(C(Cc2ccccc2)NCC(O)c2ccc(O)c(NS(C)(=O)=O)c2)cc1OC (stereo not given)
Ans. top bin

Qu. GET /class?item= CC(C)NCC(O)c1ccc(O)c(NS(C)(=O)=O)c1 (stereo not given)
Ans. middle bin

Qu. GET /class?item= COC(=O)COc1ccc(CCNCC(O)c2ccc(O)c(NS(C)(=O)=O)c2)cc1 (stereo not given)
Ans. bottom bin

Qu. GET /class?item= CS(=O)(=O)Nc1cc(C(O)CNCCc2ccccc2)ccc1O (stereo not given)
Ans. bottom bin

Qu. GET /class?item= CS(=O)(=O)Nc1cc([C@@H](O)CNC(c2ccc(OC(F)F)cc2)c2ccc(OC(F)F)cc2)ccc1O
Ans. top bin

Qu. GET /class?item= CS(=O)(=O)Nc1cc(C(O)CN)ccc1O (stereo not given)
Ans. bottom bin

Qu. GET /class?item= COc1ccc(CNCC(O)c2ccc(O)c(NS(C)(=O)=O)c2)cc1 (stereo not given)
Ans. middle bin

Qu. GET /class?item= CCCCCC(Cc1ccccc1)NCC(O)c1ccc(O)c(NS(C)(=O)=O)c1 (stereo not given)
Ans. middle bin

Others:
Qu. GET /class?item= COc1ccc([C@H](Cc2ccccc2)NC[C@H](O)c2ccc(O)c(NS(C)(=O)=O)c2)cc1OC
Ans. top bin

Qu. GET /class?item= COc1ccc(CCNCC(O)c2ccc(O)c(NS(C)(=O)=O)c2)cc1OC (stereo not given)
Ans. middle bin

Qu. GET /class?item= COc1ccc(C(NC[C@H](O)c2ccc(O)c(NS(C)(=O)=O)c2)(C(N)=O)c2ccc(OC)cc2)cc1
Ans. top bin

----------
- MEASUREMENT_TARGET: Beta-3 adrenergic receptor (Homo sapiens, UniProt P13945)
- Sequence (P13945 whole entry, looked up): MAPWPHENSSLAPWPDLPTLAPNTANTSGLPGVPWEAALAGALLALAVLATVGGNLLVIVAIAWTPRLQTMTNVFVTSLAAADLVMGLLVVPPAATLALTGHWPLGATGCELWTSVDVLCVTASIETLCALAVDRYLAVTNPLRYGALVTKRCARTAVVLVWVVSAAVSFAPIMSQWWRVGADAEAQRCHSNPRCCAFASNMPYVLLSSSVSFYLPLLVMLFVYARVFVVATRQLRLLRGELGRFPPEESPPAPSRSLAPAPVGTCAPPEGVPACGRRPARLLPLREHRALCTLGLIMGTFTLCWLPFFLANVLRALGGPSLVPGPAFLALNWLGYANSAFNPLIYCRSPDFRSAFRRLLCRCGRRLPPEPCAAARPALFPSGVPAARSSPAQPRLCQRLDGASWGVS
- EXPERIMENT: Human beta-3 adrenergic receptor agonist activity by measurement of cAMP accumulation levels in CHO membranes expressing human beta-3 receptor.
- Assay type: functional, cell membranes
MEASURE_NAME: Intrinsic activity (%)
// units = %; emit number, no label

Qu. Item COC(=O)CCCCC(Cc1ccccc1)NCC(O)c1ccc(O)c(NS(C)(=O)=O)c1 (centres undefined) has what recorded Intrinsic activity?
Ans. 89

Others:
Qu. Item COc1ccc(CCNCC(O)c2ccc(O)c(NS(C)(=O)=O)c2)cc1OC (centres undefined) has what recorded Intrinsic activity?
Ans. 110

Qu. Item COc1ccc(C(Cc2ccccc2)NCC(O)c2ccc(O)c(NS(C)(=O)=O)c2)c(OC)c1 (centres undefined) has what recorded Intrinsic activity?
Ans. 102

Qu. Item COc1cccc(C(Cc2ccccc2)NCC(O)c2ccc(O)c(NS(C)(=O)=O)c2)c1 (centres undefined) has what recorded Intrinsic activity?
Ans. 99

----------
- MEASUREMENT_TARGET: Beta-3 adrenergic receptor (Homo sapiens)
- EXPERIMENT: Human beta-3 adrenergic receptor agonist activity by measurement of cAMP accumulation levels in CHO membranes expressing human beta-3 receptor.
- Assay type: functional, cell membranes
MEASURE_NAME: Intrinsic activity (%)
// units = %; emit number, no label

These solved cases illustrate the format of a correct answer.
Qu. Item COc1ccc(C(NC[C@H](O)c2ccc(O)c(NS(C)(=O)=O)c2)(C(N)=O)c2ccc(OC)cc2)cc1 has what recorded Intrinsic activity?
Ans. 106

Qu. Item COc1ccc([C@@H](Cc2ccccc2)NC[C@H](O)c2ccc(O)c(NS(C)(=O)=O)c2)cc1OC has what recorded Intrinsic activity?
Ans. 112

Qu. Item COc1ccc(C(NC[C@H](O)c2ccc(O)c(NS(C)(=O)=O)c2)c2ccc(OC)cc2)cc1 has what recorded Intrinsic activity?
Ans. 100

Qu. Item C[C@H](Cc1ccc(OCC(=O)O)cc1)NC[C@H](O)c1cccc(Cl)c1 has what recorded Intrinsic activity?
Ans. 67

Qu. Item CC(NC[C@H](O)c1ccc(O)c(NS(C)(=O)=O)c1)(c1ccc(OC(F)F)cc1)c1ccc(OC(F)F)cc1 has what recorded Intrinsic activity?
Ans. 94

Qu. Item CS(=O)(=O)Nc1cc(C(O)CNCCc2ccc(OCC(=O)O)cc2)ccc1O (stereo not drawn) has what recorded Intrinsic activity?
Ans. 77

Qu. Item CS(=O)(=O)Nc1cc(C(O)CNC(CCCCC(=O)O)Cc2ccccc2)ccc1O (stereo not drawn) has what recorded Intrinsic activity?
Ans. 57

Qu. Item CCc1ccc(C(Cc2ccccc2)NCC(O)c2ccc(O)c(NS(C)(=O)=O)c2)cc1CC (stereo not drawn) has what recorded Intrinsic activity?
Ans. 91

Qu. Item CS(=O)(=O)Nc1cc(C(O)CNC(CCCCCO)Cc2ccccc2)ccc1O (stereo not drawn) has what recorded Intrinsic activity?
Ans. 72

Qu. Item CNC(=O)CCCCC(Cc1ccccc1)NCC(O)c1ccc(O)c(NS(C)(=O)=O)c1 (stereo not drawn) has what recorded Intrinsic activity?
Ans. 104

Others:
Qu. Item CCC(C)(C)NCC(O)c1ccc(O)c(NS(C)(=O)=O)c1 (stereo not drawn) has what recorded Intrinsic activity?
Ans. 125

Qu. Item COc1ccc(CCNCC(O)c2ccc(O)c(NS(C)(=O)=O)c2)cc1 (stereo not drawn) has what recorded Intrinsic activity?
Ans. 93

Qu. Item COCc1ccc(C(NC[C@H](O)c2ccc(O)c(NS(C)(=O)=O)c2)c2ccc(COC)cc2)cc1 has what recorded Intrinsic activity?
Ans. 78

Qu. Item CS(=O)(=O)Nc1cc([C@@H](O)CNC(c2ccccc2)c2ccccc2)ccc1O has what recorded Intrinsic activity?
Ans. 44

Qu. Item CS(=O)(=O)Nc1cc(C(O)CNC(Cc2ccccc2)c2ccc(Cl)c(Cl)c2)ccc1O (stereo not drawn) has what recorded Intrinsic activity?
Ans. 97

Qu. Item CS(=O)(=O)Nc1cc(C(O)CNC23CC4CC(CC(C4)C2)C3)ccc1O (stereo not drawn) has what recorded Intrinsic activity?
Ans. 110

Qu. Item CCCCCC(Cc1ccccc1)NCC(O)c1ccc(O)c(NS(C)(=O)=O)c1 (stereo not drawn) has what recorded Intrinsic activity?
Ans. 77

Qu. Item CS(=O)(=O)Nc1cc(C(O)CNC(Cc2ccccc2)C2CCCCC2)ccc1O (stereo not drawn) has what recorded Intrinsic activity?
Ans. 80
